# key: entry, value: remaining at 312 h, 0.5 mg/mL
method: HPLC stability under degradation conditions (acid, alkali, heat, light, oxidation)
condition_summary: solution in acetonitrile:water 80:20, daylight, % Remaining, Daylight (acetonitrile (80%):water (20%) 13 days)
The reply should be a number in %, with the unit left off.

Example entries and their recorded answers appear below.
• C=CCC1C(=O)N(c2cc(OC)c(OC)c(OC)c2)C1c1ccc(OC)c(N)c1 (stereo not drawn) [10r] = 93
• C=CCC1C(=O)N(c2cc(OC)c(OC)c(OC)c2)C1c1ccc(OC)cc1 (stereo not drawn) [10h] = 100

# ---- query compound ----
q: # lookup: remaining at 312 h, 0.5 mg/mL of C=CCC1C(=O)N(c2cc(OC)c(OC)c(OC)c2)C1c1ccc(OC)c([N+](=O)[O-])c1 (stereo not drawn) [10q]
a: 100
